Target: PI 3-kinase gamma (Homo sapiens, UniProt P48736)
Sequence (P48736 whole entry): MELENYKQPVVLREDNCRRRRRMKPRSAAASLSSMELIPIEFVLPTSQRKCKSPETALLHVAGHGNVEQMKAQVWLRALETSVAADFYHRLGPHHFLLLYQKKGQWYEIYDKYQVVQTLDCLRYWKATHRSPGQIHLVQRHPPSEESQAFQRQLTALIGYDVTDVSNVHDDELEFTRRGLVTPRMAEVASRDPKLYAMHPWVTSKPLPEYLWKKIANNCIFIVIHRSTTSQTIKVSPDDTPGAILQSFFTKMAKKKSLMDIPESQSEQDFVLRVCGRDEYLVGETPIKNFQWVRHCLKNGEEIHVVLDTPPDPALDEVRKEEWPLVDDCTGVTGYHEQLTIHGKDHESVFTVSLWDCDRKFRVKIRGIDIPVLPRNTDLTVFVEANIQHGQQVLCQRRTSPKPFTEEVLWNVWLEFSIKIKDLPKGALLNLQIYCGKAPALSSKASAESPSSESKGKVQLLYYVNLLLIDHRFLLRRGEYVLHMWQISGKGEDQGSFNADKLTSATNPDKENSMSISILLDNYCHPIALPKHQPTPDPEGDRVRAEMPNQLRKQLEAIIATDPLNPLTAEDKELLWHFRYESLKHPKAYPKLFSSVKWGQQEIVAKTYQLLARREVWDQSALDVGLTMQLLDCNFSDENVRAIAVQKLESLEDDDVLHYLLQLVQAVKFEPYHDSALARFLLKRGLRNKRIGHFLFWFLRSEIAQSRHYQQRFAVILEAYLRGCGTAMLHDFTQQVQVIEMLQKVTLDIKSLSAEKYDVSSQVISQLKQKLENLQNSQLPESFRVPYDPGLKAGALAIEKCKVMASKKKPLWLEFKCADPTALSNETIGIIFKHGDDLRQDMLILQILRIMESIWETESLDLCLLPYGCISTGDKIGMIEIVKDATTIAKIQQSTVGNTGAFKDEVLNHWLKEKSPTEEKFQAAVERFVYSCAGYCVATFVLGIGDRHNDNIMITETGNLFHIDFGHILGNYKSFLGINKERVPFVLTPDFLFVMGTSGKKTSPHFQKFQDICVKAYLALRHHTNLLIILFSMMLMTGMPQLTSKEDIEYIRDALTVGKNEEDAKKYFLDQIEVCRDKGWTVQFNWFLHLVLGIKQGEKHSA
Assay: TR-FRET Adapta assay, assay E
Format: biochemical
Details: read-out: Assay E PI3Kγ IC50
Result type: IC50 (µM)

Worked set:
| Molecule | Measured target | IC50 / µM |
| --- | --- | --- |
| Cc1ccc(S(=O)(=O)NCC2COCCN2C)cc1-c1cnc(N)c(-c2cn(C)nc2C)n1 (centres unmarked) [Example 128.2] | PI 3-kinase gamma (Homo sapiens, UniProt P48736) | 0.049 |
| Cc1ccc(S(=O)(=O)N2CC(C)(O)C2)cc1-c1cnc(N)c(-n2cncn2)n1 [Example 127.46] | PI 3-kinase gamma (Homo sapiens, UniProt P48736) | 0.073 |
| CCn1ncc(-c2nc(-c3cc(S(=O)(=O)NCC(C)(C)O)ccc3C)cnc2N)n1 [Example 82] | PI 3-kinase gamma (Homo sapiens, UniProt P48736) | 0.041 |

(I) Cc1ncc(-c2nc(-c3cc(S(=O)(=O)NC4CCOCC4)ccc3C)cnc2N)s1 [Example 45.3]
(II) Cc1cc(-c2nc(-c3cc(S(=O)(=O)NC4CCNC(=O)C4)ccc3C)cnc2N)ccn1 (centres unmarked) [Example 134]
(III) Cc1ccc(S(=O)(=O)NCC2(CO)CCCC2)cc1-c1cnc(N)c(-n2cncn2)n1 [Example 127.25]
(IV) CCN(CC)CCCNS(=O)(=O)c1ccc(C)c(-c2cnc(N)c(-c3ccnc(C)c3)n2)c1 [Example 129.23]
(V) Cc1cc(-c2nc(-c3cc(S(=O)(=O)NC[C@H]4CCC[C@@H](CN)C4)ccc3C)cnc2N)ccn1 [Example 129.42]
stdin: Ordering: ascending IC50. Response format: the labels, sorted as the prompt asks.
stdout: I, III, II, V, IV
(I: 0.013 µM, III: 0.031 µM, II: 0.055 µM, V: 0.15 µM, IV: 0.38 µM)

Every entry's value here was drawn from patent US10004732B2.
